target: APOL1 (Homo sapiens); assay: MultiTox-Fluor Multiplex Cytotoxicity Assay in tet-inducible APOL1 T-REx-HEK293 cells (cell rescue, ratio of dead to live cells); conditions: tet-inducible transgenic APOL1 T-REx-HEK293 cell lines, 50 ng/mL tet, 24 hours; read-out: IP50 (i.e., IC50 for cell proliferation)
Sequence (O14791 whole entry S342G/I384M, form open): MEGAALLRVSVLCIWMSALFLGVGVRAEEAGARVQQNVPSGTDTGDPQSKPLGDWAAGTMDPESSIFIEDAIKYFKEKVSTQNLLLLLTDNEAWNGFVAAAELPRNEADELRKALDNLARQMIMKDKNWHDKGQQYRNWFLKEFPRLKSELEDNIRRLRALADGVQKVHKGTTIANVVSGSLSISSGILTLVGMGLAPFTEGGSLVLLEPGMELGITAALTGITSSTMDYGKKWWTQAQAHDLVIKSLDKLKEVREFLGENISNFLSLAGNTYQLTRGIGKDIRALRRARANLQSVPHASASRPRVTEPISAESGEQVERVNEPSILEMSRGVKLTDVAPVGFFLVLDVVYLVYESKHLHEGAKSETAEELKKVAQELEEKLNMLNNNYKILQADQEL
pIC50: −log10 of the molar value.
Reported pIC50 by item:

{"columns": ["Molecule", "pIC50"],
 "data": [
  ["CCc1cc2c(s1)CCO[C@@]21CCN(CC2CN(C(=O)N(C)C)C2)[C@@H](C)C1", "6.00 to 6.30"],
  ["C[C@H]1C[C@@]2(CCN1Cc1cnn(CC3(C)COC3)c1)OCCc1cc(Cl)sc12", "> 7.00"],
  ["C[C@H]1C[C@@]2(CCN1Cc1ccc(F)cn1)OC[C@H](O)c1cc(Cl)sc12", "6.30 to 7.00"],
  ["CCc1cc2c(s1)CCO[C@@]21CCN(C[C@H]2C[C@@H](NC(=O)C3CC(=O)C3(C)C)C2)[C@@H](C)C1 (some centres unmarked)", "> 7.00"],
  ["C[C@H]1C[C@@]2(CCN1Cc1cnc(N3CCOCC3)nc1)OCCc1cc(Cl)sc12", "> 7.00"],
  ["C[C@H]1C[C@@]2(CCN1Cc1ccc(OCC(=O)N3CCOCC3)cc1)OCCc1cc(Cl)sc12", "> 7.00"],
  ["CNC(=O)c1cccc(CN2CC[C@]3(C[C@@H]2C)OCCc2cc(Cl)sc23)c1", "6.30 to 7.00"],
  ["CCc1cc2c(s1)CCOC21CCN(Cc2cn(CC(O)CC)nn2)CC1 (centres unmarked)", "6.00 to 6.30"],
  ["C[C@H]1C[C@@]2(CCN1Cc1cn3c(n1)CCC3)OC[C@H](O)c1cc(Cl)sc12", "6.00 to 6.30"],
  ["C[C@H]1C[C@@]2(CCN1Cc1cnn(Cc3nnco3)c1)OCCc1c2sc(C(F)(F)F)c1CO", "> 7.00"],
  ["C[C@H]1C[C@@]2(CCN1Cc1cnn(CC3CCOCC3)c1)OCCc1cc(Cl)sc12", "> 7.00"],
  ["C[C@H]1C[C@@]2(CCN1Cc1cnn(CC(O)C3(O)CCC3)c1)OC[C@@H](O)c1cc(C(F)(F)F)sc12 (some centres unmarked)", "> 7.00"],
  ["CCc1cc2c(s1)CCO[C@@]21CCN(Cc2cn(Cc3cnco3)nn2)[C@@H](C)C1", "> 7.00"],
  ["C[C@H]1C[C@@]2(CCN1Cc1cn[nH]c1)OC[C@](O)(C(F)F)c1cc(Cl)sc12", "> 7.00"],
  ["CCc1cc2c(s1)CCOC21CCN(Cc2ccc(C(=O)Nc3ccn(C)n3)nc2)CC1", "> 7.00"],
  ["C[C@H]1CC2(CCN1Cc1cnn(CCS(C)(=O)=O)c1)OCC1(CC1)c1cc(Cl)sc12 (some centres unmarked)", "> 7.00"],
  ["C[C@H]1C[C@@]2(CCN1Cc1cnn(C[C@@H](O)C(N)=O)c1)OCCc1c2sc(C(F)(F)F)c1CO", "> 7.00"],
  ["C[C@H]1C[C@@]2(CCN1Cc1cnn(CC(O)CC(C)(C)O)c1)OC[C@@H](O)c1cc(C(F)(F)F)sc12 (some centres unmarked)", "> 7.00"],
  ["CC1COC2(CCN(Cc3cn(CCS(C)(=O)=O)nn3)[C@@H](C)C2)c2cc(Cl)sc21 (some centres unmarked) [Compound 536]", "> 7.00"],
  ["C[C@H]1CC2(CCN1Cc1cnn(CCS(C)(=O)=O)c1)OCCc1c2sc2ccccc12 (some centres unmarked)", "6.00 to 6.30"],
  ["CCc1cc2c(s1)CCOC21CCN(Cc2ccc(NC3(CO)CC3)nc2)CC1", "6.30 to 7.00"],
  ["CCc1cc2c(s1)CCO[C@@]21CCN(C[C@H]2C[C@@H](NC(=O)C3CC3c3ccc(F)cc3)C2)[C@@H](C)C1 (some centres unmarked)", "> 7.00"],
  ["CCc1cc2c(s1)CCO[C@@]21CCN(Cc2cnc(NC34CCC(CO)(C3)C4)nc2)[C@@H](C)C1", "> 7.00"],
  ["CCc1cc2c(s1)CCO[C@@]21CCN(Cc2cnc(N[C@@H]3C(=O)NC[C@H]3O)nc2)[C@@H](C)C1", "> 7.00"],
  ["CCc1cc2c(s1)CCOC21CCN(Cc2cn(CC(O)CO)nn2)C(C)C1 (centres unmarked)", "> 7.00"],
  ["C[C@H]1C[C@@]2(CCN1Cc1ccc(N3CCCC3=O)cc1)OC[C@H](O)c1cc(Cl)sc12", "> 7.00"]
]}
